Kindly supply the reported IC50 values for the records listed here.
- system.under.test: Phosphodiesterase 1 (Cavia porcellus)
- test.method.notes: Inhibition in vitro of Phosphodiesterase 1 isolated from guinea pig cardiac ventricle
Answers are plain numbers, in µM.

Solved cases below.
{"columns": ["molecule", "system.under.test", "metric.name", "value.measured"],
 "data": [
  ["COc1cc2cc(CO)c(CO)c(-c3cc(OC)c(OC)c(S(C)(=O)=O)c3)c2cc1OC", "Phosphodiesterase 1 (Cavia porcellus)", "IC50", 100],
  ["COc1ccc2c(-c3cc(OC)c(OC)c(OC)c3)c(CO)c(CO)cc2c1", "Phosphodiesterase 1 (Cavia porcellus)", "IC50", 30],
  ["COc1cc2cc(CO)c(CO)c(Cc3cc(OC)c(OC)c(OC)c3)c2cc1OC", "Phosphodiesterase 1 (Cavia porcellus)", "IC50", 40],
  ["COc1cc2cc(CO)c(CO)c(-c3cc(OC)c(OC)c(OC)c3)c2cc1OC", "Phosphodiesterase 1 (Cavia porcellus)", "IC50", 60]
]}

The following compounds each have a reported value; give each one's IC50.
1. COc1cc2cc(CO)c(CO)c(-c3cc(NC(C)=O)c(OC)c(OC)c3)c2cc1OC
2. CCOc1cc2cc(CO)c(CO)c(-c3cc(N)c(OC)c(OC)c3)c2cc1OCC.Cl

Ans:
1. 100
2. 50

----------
- system.under.test: Phosphodiesterase 3 (Homo sapiens, UniProt Q14432+Q13370)
- test.method.notes: Inhibition in vitro of Phosphodiesterase 3 isolated from guinea pig cardiac ventricle
- Type: protein assay, Cavia porcellus
- details: target entry is the homologue from another species
Kindly state IC50 for each of the entries shown.

// worked examples, IC50 included
{"columns": ["molecule", "IC50"],
 "data": [
  ["COc1cc2cc(CO)c(CO)c(C3=CC=NC(=O)C3)c2cc1OC", "20 µM"],
  ["COc1ccc(-c2c(CO)c(CO)cc3cc(OC)c(OC)cc23)cc1OC", "1 µM"],
  ["CCOc1cc2cc(CO)c(CO)c(-c3ccn(CCOC)c(=O)c3)c2cc1OCC", "57 µM"],
  ["COc1ccc2c(-c3cc(OC)c(OC)c(OC)c3)c(CO)c(CO)cc2c1", "20 µM"],
  ["COCCn1ccc(-c2c(CO)c(CO)cc3cc(OC)c(OC)cc23)cc1=O", "14 µM"]
]}

State recorded IC50 for all listed compounds.
1. COc1cc2cc(CO)c(CO)c(-c3cc(OC)c(OC)c(OC)c3)c2cc1OC
2. COc1cc2cc(CO)c(CO)c(-c3cc(OC)c(OC)c(S(C)(=O)=O)c3)c2cc1OC
3. CCOc1cc2cc(CO)c(CO)c(-c3ccn(CCOC)c(=O)c3)c2cc1OC
4. COc1cc2cc(CO)c(CO)c(-c3cc(NC(C)=O)c(OC)c(OC)c3)c2cc1OC
5. COc1cc2cc(CO)c(CO)c(-c3cc(OC)c(OC)c(C(=O)N(C)C)c3)c2cc1OC
6. COc1cc2cc(CO)c(CO)cc2cc1OC

Ans:
["0.9 µM", "0.09 µM", "7 µM", "2 µM", "0.06 µM", "> 100 µM"]

----------
- test.method.notes: Inhibition of Phosphodiesterase 4 from guinea pig lung
- Parameters: species or system Cavia porcellus
metric.name: IC50 (µM)
Give bare numbers, in µM.

IC50 in this record for COc1ccc(C2CNC(=O)C2)cc1OC1CCCC1 (stereo unspecified) : 1.9
